- Tested on: Rattus norvegicus
- MEASUREMENT DESCRIPTION: In vivo antiinflammatory activity against rat carrageenan-induced foot paw edema model at 3 hr following a 1 mg/kg oral dose
- Assay type: functional
Given measured inhibition in vivo at 1 mg/kg, output yes if it is greater than or equal to 30% and no if not.

COMPOUND: Cc1ccc(-c2cc(C(F)(F)F)nn2-c2ccc(S(N)(=O)=O)cc2)cc1
CLASS: yes
//
COMPOUND: CCSc1cc(-c2ccccc2)c(-c2ccc(S(C)(=O)=O)cc2)c(=O)o1
CLASS: no
//
COMPOUND: Cc1cc(-c2ccccc2)c(-c2ccc(S(C)(=O)=O)cc2)c(=O)o1
CLASS: no
//
COMPOUND: CC(C)c1cc(-c2ccccc2)c(-c2ccc(S(C)(=O)=O)cc2)c(=O)o1
CLASS: no
//
COMPOUND: CC(C)c1cc(-c2ccc(F)cc2)c(-c2ccc(S(C)(=O)=O)cc2)c(=O)o1
CLASS: yes
//
COMPOUND: CCOc1cc(-c2ccc(F)cc2)c(-c2ccc(S(C)(=O)=O)cc2)c(=O)o1
CLASS: yes
//
COMPOUND: CC(C)Cc1ccc(C(C)C(=O)O)cc1 (stereo not given)
CLASS: yes
//
COMPOUND: CC(C)(C)Oc1cc(-c2ccccc2)c(-c2ccc(S(C)(=O)=O)cc2)c(=O)o1
CLASS: no
//
COMPOUND: CCSc1cc(-c2ccc(F)cc2)c(-c2ccc(S(C)(=O)=O)cc2)c(=O)o1
CLASS: no
